Values were extracted from patent US20210388107A1.

- TARGET ENTITY: T1, human SIRPα1 expressed on cells (human, UniProt P78324 31-504)
- T1 construct: whole, on cells; also called huSIRPα1; ExpiCHO-S (huSIRPα1)
- T1 sequence (P78324 other isoform, or with tags, fused parts or gaps limits assumed): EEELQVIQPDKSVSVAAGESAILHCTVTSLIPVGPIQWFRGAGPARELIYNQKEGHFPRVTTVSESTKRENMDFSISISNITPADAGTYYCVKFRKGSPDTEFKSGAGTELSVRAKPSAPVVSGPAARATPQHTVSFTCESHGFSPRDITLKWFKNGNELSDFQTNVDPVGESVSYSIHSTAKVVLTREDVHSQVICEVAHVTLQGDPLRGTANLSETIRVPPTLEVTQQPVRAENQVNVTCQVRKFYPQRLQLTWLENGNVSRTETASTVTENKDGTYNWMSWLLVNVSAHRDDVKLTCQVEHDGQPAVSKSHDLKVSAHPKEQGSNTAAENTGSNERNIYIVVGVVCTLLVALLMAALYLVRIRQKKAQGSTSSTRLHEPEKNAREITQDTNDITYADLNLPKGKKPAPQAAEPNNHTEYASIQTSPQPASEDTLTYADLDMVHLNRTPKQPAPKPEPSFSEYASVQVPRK
- PROTOCOL SUMMARY: flow cytometry, whole blood, CD14+ monocytes, donor #3 α1/α1
What EC50 was measured for each of the following?
Give bare numbers, in µg/mL.

Reference set, count: 3
AB25-LALA (AB25 humanized IgG1-kappa, LALA) (antibody, V domains shown) VH: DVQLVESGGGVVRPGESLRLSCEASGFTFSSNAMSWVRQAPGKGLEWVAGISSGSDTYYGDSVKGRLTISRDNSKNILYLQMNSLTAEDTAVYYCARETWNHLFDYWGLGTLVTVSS VL: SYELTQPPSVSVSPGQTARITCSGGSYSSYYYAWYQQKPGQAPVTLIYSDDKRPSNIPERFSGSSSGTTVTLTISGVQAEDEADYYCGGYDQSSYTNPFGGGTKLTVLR: 0.03
AB119-LALA (AB119 human IgG1-kappa, LALA) (antibody, V domains shown) VH: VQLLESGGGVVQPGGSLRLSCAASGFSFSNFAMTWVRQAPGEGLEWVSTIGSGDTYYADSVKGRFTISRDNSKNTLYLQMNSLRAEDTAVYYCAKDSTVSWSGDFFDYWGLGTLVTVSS VL: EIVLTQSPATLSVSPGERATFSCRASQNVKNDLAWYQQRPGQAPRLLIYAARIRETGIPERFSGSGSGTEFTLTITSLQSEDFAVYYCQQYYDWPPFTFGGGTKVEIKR: 0.003
29AM4-5-LALA (IgG1) (antibody, V domains shown, human IgG1 LALA, kappa; also called 29AM4-5huIgG1LALA) VH: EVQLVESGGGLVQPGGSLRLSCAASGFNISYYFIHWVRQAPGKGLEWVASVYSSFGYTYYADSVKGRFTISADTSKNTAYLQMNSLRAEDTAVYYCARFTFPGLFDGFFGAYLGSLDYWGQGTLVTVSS VL: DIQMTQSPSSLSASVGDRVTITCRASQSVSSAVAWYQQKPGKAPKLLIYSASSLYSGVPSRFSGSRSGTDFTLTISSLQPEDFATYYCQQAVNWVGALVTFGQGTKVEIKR: 0.02

Here is the next item to consider.
Inquiry: For the binder AB115-LALA (AB115 human IgG1-kappa, LALA) (antibody, V domains shown) VH: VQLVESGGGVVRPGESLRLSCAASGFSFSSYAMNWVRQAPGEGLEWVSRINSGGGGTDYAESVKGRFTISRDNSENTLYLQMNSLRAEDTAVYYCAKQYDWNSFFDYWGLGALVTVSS VL: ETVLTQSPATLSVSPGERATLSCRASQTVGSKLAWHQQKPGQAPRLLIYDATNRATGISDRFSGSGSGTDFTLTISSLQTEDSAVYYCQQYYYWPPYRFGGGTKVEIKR , give its reported EC50.
Reply text: 0.21
